# Target entity: panel of more than 300 wild-type and mutant kinases (313 kinase panel) (Homo sapiens)
# Test summary: Kinase profiling in a biochemical assay panel (mobility shift assays and ELISA), %-inhibition at 1 μM; selectivity entropy
# Stated conditions: kinase MAPKAPK3; compound at 1 μM
Experimental readout: %-inhibition of MAPKAPK3 (%)
Field: numeric (%). Do not append units.

Given item COc1cc2nccc(Oc3ccc(NC(=O)C4(C(=O)Nc5ccc(F)cc5)CC4)cc3)c2cc1OC [cabozantinib] , the value recorded as its %-inhibition of MAPKAPK3 is -9

Entry CO[C@H]1C[C@@H]2CC[C@@H](C)[C@@](O)(O2)C(=O)C(=O)N2CCCC[C@H]2C(=O)O[C@H]([C@H](C)C[C@@H]2CC[C@@H](OC(=O)C(C)(CO)CO)[C@H](OC)C2)CC(=O)[C@H](C)/C=C(\C)[C@@H](O)[C@@H](OC)C(=O)[C@H](C)C[C@H](C)/C=C/C=C/C=C/1C — recorded %-inhibition of MAPKAPK3 = -11

Summary for this compound, CS(=O)(=O)CCNCc1ccc(-c2ccc3ncnc(Nc4ccc(OCc5cccc(F)c5)c(Cl)c4)c3c2)o1 : %-inhibition of MAPKAPK3 is -3.64

Per the record, N#CC[C@H](C1CCCC1)n1cc(-c2ncnc3[nH]ccc23)cn1 has %-inhibition of MAPKAPK3 of -13

Documented %-inhibition of MAPKAPK3 of CC(=O)Nc1cccc(-n2c(=O)n(C3CC3)c(=O)c3c(Nc4ccc(I)cc4F)n(C)c(=O)c(C)c32)c1 : -9

Measured %-inhibition of MAPKAPK3, Cc1ccc(Nc2nccc(N(C)c3ccc4c(C)n(C)nc4c3)n2)cc1S(N)(=O)=O : -6

###

# Target entity: panel of more than 300 wild-type and mutant kinases (313 kinase panel) (Homo sapiens)
# Test summary: Kinase profiling in a biochemical assay panel (mobility shift assays and ELISA), %-inhibition at 1 μM; selectivity entropy
# Stated conditions: kinase BTK; 1 μM compound
Experimental readout: %-inhibition, BTK (%)
Express the result in % but write the number alone.

Entry COc1cc(Nc2c(C#N)cnc3cc(OCCCN4CCN(C)CC4)c(OC)cc23)c(Cl)cc1Cl — recorded %-inhibition, BTK = 97

Kindly note the recorded %-inhibition, BTK for Cc1cn(-c2cc(NC(=O)c3ccc(C)c(Nc4nccc(-c5cccnc5)n4)c3)cc(C(F)(F)F)c2)cn1 , which is 45

// sample CNC(=O)c1cc(Oc2ccc(NC(=O)Nc3ccc(Cl)c(C(F)(F)F)c3)c(F)c2)ccn1 , its %-inhibition, BTK was 2.55

The compound listed as CO[C@H]1C[C@@H]2CC[C@@H](C)[C@@](O)(O2)C(=O)C(=O)N2CCCC[C@H]2C(=O)O[C@H]([C@H](C)C[C@@H]2CC[C@@H](OC(=O)C(C)(CO)CO)[C@H](OC)C2)CC(=O)[C@H](C)/C=C(\C)[C@@H](O)[C@@H](OC)C(=O)[C@H](C)C[C@H](C)/C=C/C=C/C=C/1C has a reported %-inhibition, BTK of 18

Given item CC(C)(C)c1nc(-c2cccc(NS(=O)(=O)c3c(F)cccc3F)c2F)c(-c2ccnc(N)n2)s1 , the value recorded as its %-inhibition, BTK is 60

Value of measured %-inhibition, BTK for the entry O=S(=O)(c1cccc2cnccc12)N1CCCNCC1 : 1.51

Entry CO[C@H]1C[C@@H]2CC[C@@H](C)[C@@](O)(O2)C(=O)C(=O)N2CCCC[C@H]2C(=O)O[C@H]([C@H](C)C[C@@H]2CC[C@@H](OCCO)[C@H](OC)C2)CC(=O)[C@H](C)/C=C(\C)[C@@H](O)[C@@H](OC)C(=O)[C@H](C)C[C@H](C)/C=C/C=C/C=C/1C ; %-inhibition, BTK = 1.16

compound Cc1ccc(C(=O)Nc2ccc(CN3CCN(C)CC3)c(C(F)(F)F)c2)cc1C#Cc1cnc2cccnn12 , %-inhibition, BTK observed: 95

###

For each of the compounds below, state its pIC50.
# Test system: forty-four human cancer cell lines
# Test summary: Cell proliferation assay (ATPlite, 72 hours) in the 44 cell line Oncolines panel
# Type: cell-based
# Stated conditions: Homo sapiens, 786-0, read-out: cell panel IC50, 786-0
// scale note: pIC50 = -log10(conc_M); give the bare number

The compound listed as C#Cc1cccc(Nc2ncnc3cc(OCCOC)c(OCCOC)cc23)c1 [erlotinib] has a reported pIC50 of 5.21

Reported pIC50 of CN(C)C/C=C/C(=O)Nc1cc2c(Nc3ccc(F)c(Cl)c3)ncnc2cc1O[C@H]1CCOC1 [afatinib] : 5.56

Summary for this compound, COc1cc2nccc(Oc3ccc(NC(=O)C4(C(=O)Nc5ccc(F)cc5)CC4)cc3)c2cc1OC [cabozantinib] : pIC50 is 4.54

Documented pIC50 of CNC(=O)c1cc(Oc2ccc(NC(=O)Nc3ccc(Cl)c(C(F)(F)F)c3)cc2)ccn1 [sorafenib] : 4.93

###

# System: forty-four human cancer cell lines
# Test summary: Cell proliferation assay (ATPlite, 72 hours) in the 44 cell line Oncolines panel
# Format: cell-based
# Stated conditions: Homo sapiens, OVCAR-3, cell line OVCAR-3; read-out: cell panel IC50, OVCAR-3
Experimental readout: pIC50
Please report pIC50 as the negative decimal logarithm of the molar concentration, giving only the number.

The compound listed as COc1cc([C@@H]2c3cc4c(cc3[C@@H](O[C@@H]3O[C@@H]5CO[C@@H](C)O[C@H]5[C@H](O)[C@H]3O)[C@H]3COC(=O)[C@H]23)OCO4)cc(OC)c1O [etoposide] has a reported pIC50 of 4.65

###

# Test system: forty-four human cancer cell lines
# Test summary: Cell proliferation assay (ATPlite, 72 hours) in the 44 cell line Oncolines panel
# Assay type: cell-based
# Stated conditions: Homo sapiens; U-87 MG cell line; ATPlite, 72 hours; read-out: IC50 in cell proliferation assay (table S5 cellpanel data)
pIC50: −log10 of the molar value.
Experimental readout: pIC50

Per the records, this molecule ( CCCS(=O)(=O)Nc1ccc(F)c(C(=O)c2c[nH]c3ncc(-c4ccc(Cl)cc4)cc23)c1F [vemurafenib] ) has pIC50 equal to < 4.50

###

# Tested on: forty-four human cancer cell lines
# Test summary: Cell proliferation assay (ATPlite, 72 hours) in the 44 cell line Oncolines panel
# Format: cell-based
# Stated conditions: Homo sapiens, Jurkat E6.1, read-out: cell panel IC50, Jurkat E6.1
Experimental readout: IC50 (nM)
# output: bare number, implied unit nM

// returns IC50 for COc1cc(Nc2c(C#N)cnc3cc(OCCCN4CCN(C)CC4)c(OC)cc23)c(Cl)cc1Cl with forty-four human cancer cell lines; value = 466

###

# Test system: forty-four human cancer cell lines
# Test summary: Cell proliferation assay (ATPlite, 72 hours) in the 44 cell line Oncolines panel
# Assay type: cell-based
# Stated conditions: Homo sapiens, FaDu, read-out: cell panel IC50, FaDu
For each record, write down the corresponding pIC50.
pIC50 here is simply -log10 of the concentration when that concentration is written in mol/L.

The value of pIC50 recorded for COc1cc(Nc2c(C#N)cnc3cc(OCCCN4CCN(C)CC4)c(OC)cc23)c(Cl)cc1Cl when tested on forty-four human cancer cell lines reads 5.71

Case C#Cc1cccc(Nc2ncnc3cc(OCCOC)c(OCCOC)cc23)c1 , forty-four human cancer cell lines, pIC50 recorded as 5.94

Recorded pIC50 for CS(=O)(=O)CCNCc1ccc(-c2ccc3ncnc(Nc4ccc(OCc5cccc(F)c5)c(Cl)c4)c3c2)o1 on forty-four human cancer cell lines was 6.04

The compound COc1cc2c(Nc3ccc(Br)cc3F)ncnc2cc1OCC1CCN(C)CC1 , when measured on forty-four human cancer cell lines, yielded pIC50 of 5.89

Response field pIC50 (forty-four human cancer cell lines) for item C[C@@H](Oc1cc(-c2cnn(C3CCNCC3)c2)cnc1N)c1c(Cl)ccc(F)c1Cl : 5.27

###

# Target entity: panel of more than 300 wild-type and mutant kinases (313 kinase panel) (Homo sapiens)
# Test summary: Kinase profiling in a biochemical assay panel (mobility shift assays and ELISA), %-inhibition at 1 μM; selectivity entropy
# Stated conditions: kinase EPHA1; compound at 1 μM
Task for the reader: assign each of the following compounds its reported %-inhibition of EPHA1.
Numeric answer only, unit % assumed.

# %-inhibition of EPHA1 of CO[C@H]1C[C@@H]2CC[C@@H](C)[C@@](O)(O2)C(=O)C(=O)N2CCCC[C@H]2C(=O)O[C@H]([C@H](C)C[C@@H]2CC[C@@H](OC(=O)C(C)(CO)CO)[C@H](OC)C2)CC(=O)[C@H](C)/C=C(\C)[C@@H](O)[C@@H](OC)C(=O)[C@H](C)C[C@H](C)/C=C/C=C/C=C/1C [temsirolimus] = -15

For this compound ( C[C@@H](Oc1cc(-c2cnn(C3CCNCC3)c2)cnc1N)c1c(Cl)ccc(F)c1Cl [crizotinib] ), measured %-inhibition of EPHA1 is 97

Lookup result for CCCS(=O)(=O)Nc1ccc(F)c(C(=O)c2c[nH]c3ncc(-c4ccc(Cl)cc4)cc23)c1F [vemurafenib] ; measured %-inhibition of EPHA1: -9
